B1: SNAP91 (parent)
chain: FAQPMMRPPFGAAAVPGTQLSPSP

# Variants of: B1
# assayName: protein stability index of a GFP-peptide fusion (GPS, HEK-293T) (PSI 1-6); higher = more stable;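 also: lentivirally expressed fusions sorted by FACS into six bins by GFP to DsRed ratio, PSI derived from sequencing read proportions per bin multiplied by bin number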
# experimentalParameters: c terminus: a fixed tail appended
Field: protein stability index. Provide a value for each of the variants that follow.
Output: the number by itself.

## Task Param item = FAQPMMRPPFGAAAVPGTYLSPSP [Q19Y] ; retrieve measured protein stability index.
## Result 2.69

## Task Look at this variant and give its reported protein stability index. FAQPMMRPPFGAAAVPGTQVSPSP [L20V]
## Result 2.85

## Task Field request: protein stability index | item: FAQPMARPPFGAAAVPGTQLSPSP [M6A]
## Result 2.89

## Task Given the variant FAQPMMRPPHGAAAVPGTQLSPSP [F10H] , what is its reported protein stability index?
## Result 3.58

## Task Given the variant FEQPMMRPPFGAAAVPGTQLSPSP [A2E] , what is its reported protein stability index?
## Result 4.45

## Task GET /values?readout=protein stability index&item= FAQPMMRPPFGAAAAPGTQLSPSP [V15A]
## Result 3.54

## Task Name the reported protein stability index value associated with the variant FAQPMMRPPFGAAAVPGTQDSPSP [L20D]
## Result 2.98

## Task Reported protein stability index for FAQPMMRPPFGQAAVPGTQLSPSP [A12Q] : what is it?
## Result 3.62

## Task Give its protein stability index value. Item: FAQPMMRPPFGAAAVPGTVLSPSP [Q19V]
## Result 2.96

## Task Given the entry FAQPMMRPPFGAAAQPGTQLSPSP [V15Q] , report its measured protein stability index.
## Result 3.42

## Task Quick check: protein stability index of FPQPMMRPPFGAAAVPGTQLSPSP [A2P] ?
## Result 3.72

## Task Query: protein stability index; subject: FAQPMMRPPFGAAAVPGTQISPSP [L20I]
## Result 3.02

## Task I'd like to know its protein stability index. The variant in question is FHQPMMRPPFGAAAVPGTQLSPSP [A2H]
## Result 2.27

## Task Consider the variant FAQPMERPPFGAAAVPGTQLSPSP [M6E] and give its measured protein stability index.
## Result 3.6

## Task Please look up its protein stability index: FAQPMMRPPFGAAAVPATQLSPSP [G17A]
## Result 3.11

## Task Given the entry SAQPMMRPPFGAAAVPGTQLSPSP [F1S] , report its measured protein stability index.
## Result 4.11

## Task Report protein stability index for FAQPMMRPPFGAEAVPGTQLSPSP [A13E] please.
## Result 3.24

## Task Which protein stability index value is on record for FAQPMMRPPWGAAAVPGTQLSPSP [F10W] ?
## Result 2.1

## Task Reported protein stability index for KAQPMMRPPFGAAAVPGTQLSPSP [F1K] : what is it?
## Result 4.28

## Task Name the recorded protein stability index for FAQPMMRPPFCAAAVPGTQLSPSP [G11C] .
## Result 2.96

## Task Which protein stability index value is on record for FAQPMMRPPFAAAAVPGTQLSPSP [G11A] ?
## Result 3.74

## Task What value of measured protein stability index is listed for FAQPMFRPPFGAAAVPGTQLSPSP [M6F] ?
## Result 3.14

## Task I have this variant here, FAQPIMRPPFGAAAVPGTQLSPSP [M5I] , and I need its recorded protein stability index.
## Result 2.59

## Task Return reported protein stability index; argument: FAQPMPRPPFGAAAVPGTQLSPSP [M6P]
## Result 3.62

## Task Value lookup for protein stability index; key = FAQPMMRPPFQAAAVPGTQLSPSP [G11Q]
## Result 4.35

## Task Dear colleague, I am looking for the recorded protein stability index of the following variant: FAQPMMRPPFGAAAVPGTQWSPSP [L20W]
## Result 2.73

## Task Value lookup for protein stability index; key = FAQPLMRPPFGAAAVPGTQLSPSP [M5L]
## Result 3.4

## Task Name the reported protein stability index value associated with the variant FAQPMMSPPFGAAAVPGTQLSPSP [R7S]
## Result 3.32

## Task Dear colleague, I am looking for the recorded protein stability index of the following variant: FAQPMMRPPFGAAAVPGTQLSPSA [P24A]
## Result 3.11

## Task GET /values?readout=protein stability index&item= FAQPMMRPPFGAAAVPGTQTSPSP [L20T]
## Result 3.56

## Task Would you mind telling me what protein stability index value was observed for FAQPMMRPPFGAAAVPGTQNSPSP [L20N] ?
## Result 3.26

## Task Which value of protein stability index has been reported for FAQPRMRPPFGAAAVPGTQLSPSP [M5R] in the records?
## Result 4.15

## Task Look up protein stability index: FAQPMMRPPFGAAQVPGTQLSPSP [A14Q]
## Result 3.25

## Task Entry under review: FAQPMMRPPFGAAAVPGTQLSPAP [S23A] . Reported protein stability index?
## Result 3.4

## Task Record request: protein stability index value, item FAQPMMRPPFGAAWVPGTQLSPSP [A14W]
## Result 1.81

## Task Suppose we examine the variant FAQPMMRPPFGAAAVPGTQLYPSP [S21Y] ; what protein stability index value has been reported?
## Result 3

## Task Using the record for FAQPSMRPPFGAAAVPGTQLSPSP [M5S] , report its protein stability index.
## Result 3.31

## Task Could you share which protein stability index value was measured for FAQPMMRPPFGAAAVPSTQLSPSP [G17S] ?
## Result 2.81

## Task Param item = FAQPMMRPHFGAAAVPGTQLSPSP [P9H] ; retrieve measured protein stability index.
## Result 3.52

## Task Looking for the measured protein stability index of FAQPMMRPPFGAAAVPGTQLSPFP [S23F] , can you help?
## Result 2.75

## Task So what's the measured protein stability index for this one? FAQPMKRPPFGAAAVPGTQLSPSP [M6K]
## Result 3.65

## Task Given the entry FAQPMMRPPFGANAVPGTQLSPSP [A13N] , report its measured protein stability index.
## Result 3.46

## Task Which protein stability index value is on record for WAQPMMRPPFGAAAVPGTQLSPSP [F1W] ?
## Result 3.41

## Task Tell me the measured protein stability index of FAQPMMRPPFGAAAVIGTQLSPSP [P16I] , please.
## Result 2.22

## Task Quick one: protein stability index of FAQPMMRPPFGAAAFPGTQLSPSP [V15F] ?
## Result 2.78

## Task If you can, please state the reported protein stability index value of FAQPMMRPPFGAAAVPGLQLSPSP [T18L] .
## Result 2.95
